Would you kindly list log10 of Kd for each of these compounds?
Biological target: Indoleamine 2,3-dioxygenase 1 (Homo sapiens)
Experiment: Binding affinity to recombinant ferrous state of IDO1 (unknown origin) expressed in Escherichia coli assessed as dissociation constant incubated for 30 mins by UV-Visible spectrophotometric method
Sequence (P14902 whole entry): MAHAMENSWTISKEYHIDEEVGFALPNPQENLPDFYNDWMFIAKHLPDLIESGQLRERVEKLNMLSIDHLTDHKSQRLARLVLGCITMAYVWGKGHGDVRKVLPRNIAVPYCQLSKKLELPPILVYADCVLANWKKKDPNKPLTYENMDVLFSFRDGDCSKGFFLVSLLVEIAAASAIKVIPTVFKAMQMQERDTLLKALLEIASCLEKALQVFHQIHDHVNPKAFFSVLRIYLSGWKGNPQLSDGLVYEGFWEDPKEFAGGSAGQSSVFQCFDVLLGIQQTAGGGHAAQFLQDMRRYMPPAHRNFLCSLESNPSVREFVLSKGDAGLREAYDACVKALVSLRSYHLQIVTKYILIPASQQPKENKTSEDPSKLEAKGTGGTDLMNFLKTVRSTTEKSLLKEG
# log10 transformed; quantity=Kd; unit=nM

Recorded result, Cc1cc(C(O)Cc2ccccc2)c2cn[nH]c2c1 (racemic) , log10 of Kd: 2.67

Recorded result, C#Cc1cc(C(O)Cc2ccccc2)c2cn[nH]c2c1 (racemic) , log10 of Kd: 3.11

Recorded result, OC(Cc1ccccc1)c1cccc2[nH]ncc12 (racemic) , log10 of Kd: 3.90

Recorded result, OC(Cc1ccccc1)c1cc(-c2ccccc2)cc2[nH]ncc12 (racemic) , log10 of Kd: 4.72

Recorded result, Cc1cc([Si](C)(C)C)c2cn[nH]c2c1 , log10 of Kd: 3.23

Recorded result, OC(Cc1ccccc1)c1cc(C2CC2)cc2[nH]ncc12 (racemic) , log10 of Kd: 3.08

Recorded result, OC(Cc1ccccc1)c1cc(Br)cc2[nH]ncc12 (racemic) , log10 of Kd: 2.15

Recorded result, C[Si](C)(C)c1cccc2[nH]ncc12 , log10 of Kd: 4.63

Recorded result, CCc1cc(C(O)Cc2ccccc2)c2cn[nH]c2c1 (racemic) , log10 of Kd: 2.87

* * *

Would you kindly list inhibition for each of these compounds?
Test system: Indoleamine 2,3-dioxygenase 1 (Homo sapiens), P14902 [C129Y]
Test: Inhibition of recombinant IDO1 C129Y mutant (unknown origin) expressed in Escherichia coli at 10 uM incubated for 30 mins by methylene blue dye based UV-Visible spectrophotometric method relative to control
Reply numerically in %, unit not repeated.

I looked up CCc1cc(C(O)Cc2ccccc2)c2cn[nH]c2c1 (racemic) and its inhibition for Indoleamine 2,3-dioxygenase 1 (Homo sapiens), P14902 [C129Y] was 18

I looked up OC(Cc1ccccc1)c1cc(C2CC2)cc2[nH]ncc12 (racemic) and its inhibition for Indoleamine 2,3-dioxygenase 1 (Homo sapiens), P14902 [C129Y] was 20

I looked up OC(Cc1ccccc1)c1cc(Br)cc2[nH]ncc12 (racemic) and its inhibition for Indoleamine 2,3-dioxygenase 1 (Homo sapiens), P14902 [C129Y] was 23

I looked up OC(Cc1ccccc1)c1cccc2[nH]ncc12 (racemic) and its inhibition for Indoleamine 2,3-dioxygenase 1 (Homo sapiens), P14902 [C129Y] was 14

I looked up C#Cc1cc(C(O)Cc2ccccc2)c2cn[nH]c2c1 (racemic) and its inhibition for Indoleamine 2,3-dioxygenase 1 (Homo sapiens), P14902 [C129Y] was 12

I looked up Cc1cc(C(O)Cc2ccccc2)c2cn[nH]c2c1 (racemic) and its inhibition for Indoleamine 2,3-dioxygenase 1 (Homo sapiens), P14902 [C129Y] was 18

I looked up OC(Cc1ccccc1)c1cc(-c2ccccc2)cc2[nH]ncc12 (racemic) and its inhibition for Indoleamine 2,3-dioxygenase 1 (Homo sapiens), P14902 [C129Y] was 14

* * *

Biological target: Indoleamine 2,3-dioxygenase 1 (Homo sapiens)
Assay: Binding affinity to recombinant ferric state of IDO1 (unknown origin) expressed in Escherichia coli assessed as dissociation constant incubated for 30 mins by UV-Visible spectrophotometric method
Would you kindly list pKd for each of these compounds?
Bear in mind: pKd is minus log10 of a mol/L concentration; give just that figure.

Recorded result, Cc1cc([Si](C)(C)C)c2cn[nH]c2c1 , pKd: 5.60

Recorded result, C#Cc1cc(C(O)Cc2ccccc2)c2cn[nH]c2c1 (racemic) , pKd: 5.13

Recorded result, Cc1cc(C(O)Cc2ccccc2)c2cn[nH]c2c1 (racemic) , pKd: 5.92

Recorded result, OC(Cc1ccccc1)c1cc(Br)cc2[nH]ncc12 (racemic) , pKd: 6.22

Recorded result, CCc1cc(C(O)Cc2ccccc2)c2cn[nH]c2c1 (racemic) , pKd: 5.96

Recorded result, OC(Cc1ccccc1)c1cccc2[nH]ncc12 (racemic) , pKd: 4.51

Recorded result, C[Si](C)(C)c1cccc2[nH]ncc12 , pKd: 3.82

* * *

Target: Indoleamine 2,3-dioxygenase 1 (Homo sapiens, UniProt P14902, C129Y)
Assay: Binding affinity to recombinant ferrous state of IDO1 C129Y mutant (unknown origin) expressed in Escherichia coli assessed as dissociation constant incubated for 30 mins by UV-Visible spectrophotometric method
measurement.label: pKd
Bear in mind: pKd is minus log10 of a mol/L concentration; give just that figure.

Recorded result, Cc1cc(C(O)Cc2ccccc2)c2cn[nH]c2c1 (racemic) , pKd: 4.57

Recorded result, OC(Cc1ccccc1)c1cc(Br)cc2[nH]ncc12 (racemic) , pKd: 5.66

Recorded result, C#Cc1cc(C(O)Cc2ccccc2)c2cn[nH]c2c1 (racemic) , pKd: 4.03

Recorded result, OC(Cc1ccccc1)c1cccc2[nH]ncc12 (racemic) , pKd: 4.18

Recorded result, CCc1cc(C(O)Cc2ccccc2)c2cn[nH]c2c1 (racemic) , pKd: 4.36

Recorded result, OC(Cc1ccccc1)c1cc(C2CC2)cc2[nH]ncc12 (racemic) , pKd: 4.55

* * *

Biological target: Indoleamine 2,3-dioxygenase 1 (Homo sapiens, UniProt P14902)
Test: Inhibition of recombinant IDO1 (unknown origin) expressed in Escherichia coli at 10 uM incubated for 30 mins by methylene blue dye based UV-Visible spectrophotometric method relative to control
Sequence (P14902 whole entry, looked up): as the sequence (P14902 whole entry) above
Where inhibition equals or exceeds 60%, the correct label is true (1); where it does not, the label is false (0).

Test whether the compound Cc1cc(C(O)Cc2ccccc2)c2cn[nH]c2c1 (racemic) records inhibition of 60% or higher.
true (1)

Test whether the compound OC(Cc1ccccc1)c1cc(Br)cc2[nH]ncc12 (racemic) records inhibition of 60% or higher.
true (1)

Test whether the compound OC(Cc1ccccc1)c1cc(C2CC2)cc2[nH]ncc12 (racemic) records inhibition of 60% or higher.
true (1)

Test whether the compound c1ccc2[nH]ncc2c1 records inhibition of 60% or higher.
false (0)

Test whether the compound CCc1cc(C(O)Cc2ccccc2)c2cn[nH]c2c1 (racemic) records inhibition of 60% or higher.
true (1)

Test whether the compound C#Cc1cc(C(O)Cc2ccccc2)c2cn[nH]c2c1 (racemic) records inhibition of 60% or higher.
false (0)

Test whether the compound OC(Cc1ccccc1)c1cccc2[nH]ncc12 (racemic) records inhibition of 60% or higher.
false (0)

Test whether the compound OC(Cc1ccccc1)c1cc(-c2ccccc2)cc2[nH]ncc12 (racemic) records inhibition of 60% or higher.
false (0)

Test whether the compound C[Si](C)(C)c1cccc2[nH]ncc12 records inhibition of 60% or higher.
false (0)

Test whether the compound Cc1cc([Si](C)(C)C)c2cn[nH]c2c1 records inhibition of 60% or higher.
false (0)
